# Test system: IL-6-GFP PC-9GR
# protocol: cell viability (CCK-8 OD) relative to DMSO control (fraction of control); higher = more viable cells
# measurement parameters: compound concentration: 10 uM; treatment time: 48 h
The following compounds are listed with their measured cell viability values.
measure: cell viability

* Cc1ccc(Cl)c(Nc2ccccc2C(=O)[O][Na])c1Cl [Meclofenamate Sodium] | 0.983
* CC(=O)N1CC(O)CC1C(=O)O (centres undefined) [Oxaceprol] | 1.22
* COc1cc2ncnc(Nc3ccc(F)c(Cl)c3)c2cc1NC(=O)/C=C/CN1CCCCC1 | 0.477
* CN(Cc1cnc2nc(N)nc(N)c2n1)c1ccc(C(=O)NC(CCC(=O)O)C(=O)O)cc1 (centres undefined) [Methotrexate] | 0.638
* C#Cc1cccc(Nc2ncnc3cc(OCCOC)c(OCCOC)cc23)c1 [Erlotinib] | 0.81
* CCOC(=O)c1c(N)sc2c1CCN(Cc1ccccc1)C2.Cl [Tinoridine hydrochloride] | 1.12
* CCOC(=O)c1ccc(C#Cc2ccc3c(c2)C(C)(C)CCS3)nc1 [Tazarotene] | 1.32
* C=CC1CC1(NC(=O)C1CC(Oc2ncc(OC)c3ccc(Cl)cc23)CN1C(=O)C(NC(=O)OC(C)(C)C)C(C)(C)C)C(=O)NS(=O)(=O)C1CC1 (centres undefined) [Asunaprevir] | 1.24
* S=P(N1CC1)(N1CC1)N1CC1 [Thiotepa] | 1.02

Attribution: the supplement of paper PMC8866396
